Measured pKd, listed per entry for reference.
- Assay System: T1, PUF4 RNA-binding domain (Saccharomyces cerevisiae, UniProt P25339 537-888)
- T1 sequence: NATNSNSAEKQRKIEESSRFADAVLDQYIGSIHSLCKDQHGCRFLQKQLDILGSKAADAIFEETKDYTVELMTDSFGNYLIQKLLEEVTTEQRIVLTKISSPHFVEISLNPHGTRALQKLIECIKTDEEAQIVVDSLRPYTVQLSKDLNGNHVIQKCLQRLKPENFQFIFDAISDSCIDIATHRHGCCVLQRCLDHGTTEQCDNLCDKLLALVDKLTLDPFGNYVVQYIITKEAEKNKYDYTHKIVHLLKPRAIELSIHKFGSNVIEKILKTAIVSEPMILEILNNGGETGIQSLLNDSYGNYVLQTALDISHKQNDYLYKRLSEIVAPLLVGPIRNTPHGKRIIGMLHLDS
- Experiment: Mg; RNA-MaP; 20 mM Na-HEPES pH 7.4, 30 mM KOAc, 0.75 mM MgCl2, 0.1% Tween-20, 5% glycerol, 0.1 mg/mL BSA, 2 mM DTT; 25 C; 0.0125-409.6 nM protein
- Measurement Context: tags: N-His6-TEV cleaved; C-SNAP kept, Cy3B-labelled; label: tethered on chip by stalled RNA polymerase
Answer as the number alone; pKd is minus log10 of concentration in mol/L.

Task: Look up pKd: Id_ii_S2_P3E.3_K3.2_C3.2_[C-2T]_[T-1A]_H3.2_A3.1_F3.1_T3.2_[T9C]_[A10T] (ssRNA) RNA: UUUGAUUAAUAUGAUAUCGUUCUUUCUUAUAUAUAUACUUUCUUUCUCGAUAUCAUAUUAAUCUUU
Result: 7.34

Next:
Task: Look up pKd: UCUCUUUAUAUAUAUAUUUCUCUU (ssRNA) [Id_ii_S1_P3E.3_K3.2_C3.2_[C-2T]_[T-1A]_H3.2_A3.1_F3.1_T3.2_[A10T]]
Result: 6.48

Task: Look up pKd: Ib_S2_P3E.1_K3.1_C3.1_H3.1_A3.1_F3.1_[T7C]_[A8T]_T3.1 (ssRNA) RNA: UUUGAUUAAUAUGAUAUCGUUCUUUCUUGUAUACUUUCUUUCUCGAUAUCAUAUUAAUCUUU
Result: 8.41
